Test system: RT-112
Test: Antiproliferative activity against human RT-112 cells assessed as inhibition of cell growth incubated for 72 hrs by MTT colorimetric assay
Type: functional, cell-based
Settings: RT-112, 72 h
REPORTED_PROPERTY: IC50 (nM)

>>> readout_value("Cc1n[nH]c2ccc(-c3cc(N[C@@H](CO)c4ccccc4)cnc3-c3cc(F)ccc3O)cc12")
122

---

Biological target: Tyrosine-protein kinase BTK (Homo sapiens, UniProt Q06187)
Sequence (Q06187 whole entry): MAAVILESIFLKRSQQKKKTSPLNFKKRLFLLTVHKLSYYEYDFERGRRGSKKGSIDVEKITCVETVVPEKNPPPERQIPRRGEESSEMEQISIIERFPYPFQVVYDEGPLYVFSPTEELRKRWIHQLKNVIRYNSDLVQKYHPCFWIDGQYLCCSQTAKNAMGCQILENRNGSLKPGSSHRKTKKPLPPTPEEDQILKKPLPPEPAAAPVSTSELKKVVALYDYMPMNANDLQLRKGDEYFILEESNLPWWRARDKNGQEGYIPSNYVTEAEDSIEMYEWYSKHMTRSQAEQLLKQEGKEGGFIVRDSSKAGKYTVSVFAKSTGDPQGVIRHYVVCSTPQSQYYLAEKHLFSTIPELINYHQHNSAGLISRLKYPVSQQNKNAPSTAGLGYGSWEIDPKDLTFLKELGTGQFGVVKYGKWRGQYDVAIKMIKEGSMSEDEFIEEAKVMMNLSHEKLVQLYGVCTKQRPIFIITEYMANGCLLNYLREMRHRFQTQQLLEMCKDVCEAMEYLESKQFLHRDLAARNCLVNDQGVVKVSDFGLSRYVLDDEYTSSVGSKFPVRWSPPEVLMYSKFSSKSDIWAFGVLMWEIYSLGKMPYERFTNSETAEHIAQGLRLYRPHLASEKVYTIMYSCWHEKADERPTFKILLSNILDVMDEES
pIC50: −log10 of the molar value.
REPORTED_PROPERTY: pIC50

>>> readout_value("CNc1ncc2cc(-c3cc(OC)cc(OC)c3Cl)c(=O)n(CCc3ccc(NC(=O)/C(C#N)=C/C(C)(C)N)cc3)c2n1")
9.30

---

pIC50: −log10 of the molar value.
pIC50, Fibroblast growth factor receptor 1 (Homo sapiens, UniProt P11362), per-entry values.
REPORTED_PROPERTY: pIC50

>>> readout_value("CCC(=O)Oc1ccc(/C=C2\\CC/C(=C\\c3ccc(OC(=O)CC)c(OC)c3)C2=O)cc1OC")
5.52
>>> readout_value("COc1cc(/C=C2\\CC/C(=C\\c3ccc(OC(=O)C(C)C)c(OC)c3)C2=O)ccc1OC(=O)C(C)C")
5.59
